B1: Lysozyme C, P61626 (parent)
chain: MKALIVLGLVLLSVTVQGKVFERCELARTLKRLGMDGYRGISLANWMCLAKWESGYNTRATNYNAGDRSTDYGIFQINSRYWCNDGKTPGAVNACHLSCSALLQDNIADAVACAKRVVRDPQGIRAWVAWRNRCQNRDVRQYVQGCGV

Variants of: B1
stated-conditions: Homo sapiens; pH 2.7; Thermal; DSC; glycine 0.05 M; reversible: yes; structure 1LZ1; whole UniProt chain shown
Entries and their measured Tm follow.
Provide only the numeric value, understood in °C.

Solved cases (5 shown):
Q: Supply measured Tm of V117A in your reply.
A: 61.9

Q: Supply measured Tm of V20A in your reply.
A: 60.3

Q: Supply measured Tm of V118A in your reply.
A: 64.1

Q: Supply measured Tm of V111A in your reply.
A: 62.6

Q: Supply measured Tm of V148A in your reply.
A: 62.3

Further cases:
Q: Supply measured Tm of V128A in your reply.
A: 66.4

Q: Supply measured Tm of V143A in your reply.
A: 60.9

Q: Supply measured Tm of V92A in your reply.
A: 63.8

Q: Supply measured Tm of V139A in your reply.
A: 60.4
